assay_notes: protein stability index of a GFP-peptide fusion (yeast GPS) (PSI 1-4); higher = more stable; sorted into four equal gates, so the index is relative within each strain
cond: san1∆
So basically: protein stability index at 3 or higher? That is t. Lower than 3? That is f.

Look over these answered cases.
Input line: hey, is protein stability index for this one >= 3? ISSSTQCLRFLKETVIP [POP6]
Output line: f

Input line: Test whether the sequence LEQEYRLILLLNHRNKN [RMP1] records protein stability index of 3 or higher.
Output line: f

Input line: Hi, just wondering whether SINVHSNNITSGLNRAI [RET1] shows protein stability index of 3 or higher.
Output line: t

Input line: Does the reported protein stability index for MTTFRFCRDCNNMLYPR [RPB9] fall at or above the 3 mark?
Output line: t

Input line: Threshold query (protein stability index >= 3) on GKPHFSLLGGFDENIAR [PCI8]
Output line: t

Input line: Record KGKKGQKKRVVDPFTRK [RPS1A] ; criterion: protein stability index no lower than 3. Met?
Output line: t

Input line: Is protein stability index at least 3? Consider MLLEEQLEYKRGEIREI [MED7]
Output line: f

Input line: # check: protein stability index of NSLLSNFNDIPPSVTLQ [YDL088C/ASM4] is greater than or equal to 3
Output line: f

Input line: Please indicate if the recorded protein stability index for KKINRRNETSVDEEDEN [YCG1] meets or exceeds 3.
Output line: f

Input line: Form field: protein stability index at least 3? Entry: VTYALSGYVRSRGESDD [RPS21A]
Output line: t

---
Input line: # bool: protein stability index of QKLFVQVSNFAPQVYII [GAL11] >= 3
Output line: f

Input line: Evaluate KHHQLFYMLNAGIRPKF [RPN1] : protein stability index at minimum 3?
Output line: f

Input line: Textbook exercise: given the entry QNDILQESFINTMSAWV [FAS2] , state whether its protein stability index is greater than or equal to 3.
Output line: f

Input line: Does the reported protein stability index for ASITGTGSNDRCIGDSD [YMR129W/POM152] fall at or above the 3 mark?
Output line: f

Input line: Identify whether the reported protein stability index of the following sequence is 3 or greater: GLGMISASHILIPASDL [PRP8]
Output line: f

Input line: Hello, I need to know if RNRDIALFQPPNFDWDL [ROX3] has measured protein stability index not below 3. Thanks!
Output line: t

Input line: I'd appreciate it if you could say whether LVVRFTNKDIICQIISS [RPL5] has protein stability index at least equal to 3.
Output line: f

Input line: Record NRRGMLALSGTSASNTS [SNF5] ; criterion: protein stability index no lower than 3. Met?
Output line: f

Input line: Does TFGTKHAADSQNNKPSF [YLR335W/NUP2] have a reported protein stability index of at least 3?
Output line: t

Input line: Does protein stability index meet or surpass 3 for IASDGSECIVSIKSKVV [RRP42] ?
Output line: f

Input line: Could you tell me if the measured protein stability index of KNFSPTKRVEKPQLKFK [RRP6] reaches 3 or more?
Output line: f

Input line: Check the entry KLFVSKEHAPYTDELEE [FAS2] : does protein stability index equal or exceed 3?
Output line: f

Input line: Given NLLHSYMEKGTQLDDLQ [YML103C/NUP188] , state whether its protein stability index is at least 3.
Output line: f

Input line: // inclusive: protein stability index at least 3? input: RVVTVDGKLIDISGTMS [SMC4]
Output line: t

Input line: State whether the measured protein stability index reaches 3, counting equality as reaching it, for QQTEHETEIKDLTQLLE [SMC4]
Output line: t

Input line: Hello, I need to know if INVDNDPFFAQSEDLSH [YML103C/NUP188] has measured protein stability index not below 3. Thanks!
Output line: t
